From: paper PMC5651845

Target: recombinant cPLA2 (Homo sapiens, UniProt P47712)
Construct: purchased US Biological P4074-03R
Sequence (P47712 1-749): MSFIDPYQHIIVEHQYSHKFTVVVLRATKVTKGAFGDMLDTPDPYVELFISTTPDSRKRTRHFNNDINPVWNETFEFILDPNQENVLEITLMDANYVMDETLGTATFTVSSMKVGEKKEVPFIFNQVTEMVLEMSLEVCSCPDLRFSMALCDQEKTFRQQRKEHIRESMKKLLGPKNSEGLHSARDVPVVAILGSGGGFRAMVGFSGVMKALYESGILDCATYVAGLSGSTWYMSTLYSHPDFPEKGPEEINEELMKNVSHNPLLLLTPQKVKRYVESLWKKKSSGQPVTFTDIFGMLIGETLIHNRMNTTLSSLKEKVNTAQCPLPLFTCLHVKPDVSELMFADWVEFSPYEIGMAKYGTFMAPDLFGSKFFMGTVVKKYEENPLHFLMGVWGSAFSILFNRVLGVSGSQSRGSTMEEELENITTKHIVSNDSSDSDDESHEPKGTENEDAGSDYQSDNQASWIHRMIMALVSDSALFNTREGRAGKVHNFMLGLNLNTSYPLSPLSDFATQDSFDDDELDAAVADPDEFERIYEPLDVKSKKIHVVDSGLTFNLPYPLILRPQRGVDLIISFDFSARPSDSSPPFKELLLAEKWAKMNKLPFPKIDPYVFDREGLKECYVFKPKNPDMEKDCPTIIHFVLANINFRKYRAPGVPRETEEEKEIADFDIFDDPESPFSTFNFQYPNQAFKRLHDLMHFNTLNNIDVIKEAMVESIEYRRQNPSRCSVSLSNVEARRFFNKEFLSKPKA
Assay: EnzChek phospholipase A2 fluorogenic assay (% activity) at 10 μM
Assay type: biochemical
Conditions: 10 μM compound, 1 h, room temperature
Consider the following compounds and their measured remaining activity at 10 µM readings.
Reply with just the number (in %).

// solved cases for remaining activity at 10 µM follow
[[record]]
compound = "CCCCC/C=C\\C/C=C\\C/C=C\\C/C=C\\CCCC(=O)Nc1cccc(C(=O)O)c1 [2d]"
recorded_measurement = 13.2

[[record]]
compound = "CCCCC/C=C\\C/C=C\\C/C=C\\C/C=C\\CCCC(=O)Nc1cccc(S(N)(=O)=O)c1 [2p]"
recorded_measurement = 53.9

[[record]]
compound = "CCCCCCCC/C=C\\C/C=C\\C/C=C\\C/C=C\\CCCC(=O)C(F)(F)F [1c]"
recorded_measurement = 45

[[record]]
compound = "CCCCC/C=C\\C/C=C\\C/C=C\\C/C=C\\CCCC(=O)NCc1ccc(C(=O)O)cc1 [2e]"
recorded_measurement = 25.8

[[record]]
compound = "CCCCC/C=C\\C/C=C\\C/C=C\\C/C=C\\CCCC(=O)NCc1cccc(C(=O)O)c1 [2f]"
recorded_measurement = 35.6


We next turn to a different compound, shown below.
The recorded remaining activity at 10 µM for CCCCC/C=C\C/C=C\C/C=C\C/C=C\CCCC(=O)C(F)(F)Cl [1n] is 49.2

* * *

Target: recombinant cPLA2 (Homo sapiens, UniProt P47712)
Sequence (P47712 1-749): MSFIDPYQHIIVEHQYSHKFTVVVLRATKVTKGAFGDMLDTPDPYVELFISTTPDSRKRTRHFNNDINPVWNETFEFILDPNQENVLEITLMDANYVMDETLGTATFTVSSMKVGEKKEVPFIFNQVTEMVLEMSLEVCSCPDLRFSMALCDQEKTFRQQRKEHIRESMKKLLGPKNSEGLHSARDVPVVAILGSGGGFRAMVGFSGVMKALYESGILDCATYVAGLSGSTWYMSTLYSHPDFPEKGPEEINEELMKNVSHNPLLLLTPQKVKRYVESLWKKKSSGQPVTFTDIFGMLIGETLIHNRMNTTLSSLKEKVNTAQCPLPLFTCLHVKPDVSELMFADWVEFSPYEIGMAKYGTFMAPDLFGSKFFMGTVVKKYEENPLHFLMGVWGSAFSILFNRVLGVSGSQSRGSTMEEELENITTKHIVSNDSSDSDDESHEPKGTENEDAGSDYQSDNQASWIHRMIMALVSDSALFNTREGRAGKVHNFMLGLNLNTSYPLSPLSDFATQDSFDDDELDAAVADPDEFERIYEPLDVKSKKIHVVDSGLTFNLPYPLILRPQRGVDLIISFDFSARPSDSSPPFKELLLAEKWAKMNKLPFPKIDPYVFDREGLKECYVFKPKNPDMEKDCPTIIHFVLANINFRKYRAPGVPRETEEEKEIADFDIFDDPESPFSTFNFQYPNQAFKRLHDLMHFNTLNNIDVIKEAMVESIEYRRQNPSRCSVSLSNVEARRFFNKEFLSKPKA
Experiment: EnzChek phospholipase A2 fluorogenic assay (IC50)
Result type: pIC50
The value called pIC50 is obtained by taking minus log10 of the concentration in mol/L.

[[record]]
compound = "CCCCC/C=C\\C/C=C\\C/C=C\\C/C=C\\CCCC(=O)C(F)(F)F [1a, arachidonyl trifluoromethyl ketone, reference compound]"
target_under_test = "recombinant cPLA2 (Homo sapiens, UniProt P47712)"
result_type = "pIC50"
recorded_measurement = 4.78

[[record]]
compound = "CCCCC/C=C\\C/C=C\\C/C=C\\C/C=C\\CCCCC(=O)Nc1cccc(C(=O)O)c1 [2i]"
target_under_test = "recombinant cPLA2 (Homo sapiens, UniProt P47712)"
result_type = "pIC50"
recorded_measurement = 5.54


Consider now this further compound.
Measured on recombinant cPLA2 (Homo sapiens, UniProt P47712), CCCCC/C=C\C/C=C\C/C=C\C/C=C\CCCCC(=O)NCCCCC(=O)O [2g] has a documented pIC50 of 5.28

* * *

Each entry below lists one item and its recorded remaining activity at 10 µM value.
Target: recombinant cPLA2 (Homo sapiens)
Construct: purchased US Biological P4074-03R
Experiment: EnzChek phospholipase A2 fluorogenic assay (% activity) at 10 μM
Type: biochemical
Details: 10 μM compound, 1 h, room temperature
Quote the value and follow it with the unit of measurement.

[[record]]
compound = "CCCCC/C=C\\C/C=C\\C/C=C\\C/C=C\\CCCC(=O)Nc1ccc(C(N)=O)cc1 [2l]"
result_type = "remaining activity at 10 µM"
recorded_measurement = "67.4%"

[[record]]
compound = "CCCCC/C=C\\C/C=C\\C/C=C\\C/C=C\\CCCC(=O)C(F)F [1o]"
result_type = "remaining activity at 10 µM"
recorded_measurement = "40.2%"

[[record]]
compound = "CCC/C=C\\C/C=C\\C/C=C\\C/C=C\\CCCCC(=O)Nc1cccc(C(=O)O)c1 [2j]"
result_type = "remaining activity at 10 µM"
recorded_measurement = "16.5%"

[[record]]
compound = "CCCCC/C=C\\C/C=C\\C/C=C\\C/C=C\\CCCC(=O)NCCCCC(=O)O [2b]"
result_type = "remaining activity at 10 µM"
recorded_measurement = "26.7%"


Value of remaining activity at 10 µM reported for the compound CCCCC/C=C\C/C=C\C/C=C\C/C=C\CCCC(=O)Nc1cccc(C(N)=O)c1 [2m] is 57.5%

// remaining activity at 10 µM value for CCCCC/C=C\C/C=C\C/C=C\C/C=C\CCCC(=O)Nc1ccccc1C(=O)O [2o] : 65.5%

So for CCC/C=C\C/C=C\C/C=C\C/C=C\CCCCC(=O)NCCCCC(=O)O [2h] , the logged remaining activity at 10 µM turned out to be 43.6%

Short answer for CCCCC/C=C\C/C=C\C/C=C\C/C=C\CCCCCC(=O)NCCCCC(=O)O [2k] : remaining activity at 10 µM was 37.7%

# remaining activity at 10 µM (compound: CCCCC/C=C\C/C=C\C/C=C\C/C=C\CCCC(=O)NCCCCCC(=O)O [2c] ) is 40.9%

Noted for CCCCCC/C=C\C/C=C\C/C=C\C/C=C\CCC(=O)C(F)(F)F [1e] : its remaining activity at 10 µM reads 40.5%

The measured remaining activity at 10 µM associated with CCCCC/C=C\C/C=C\C/C=C\C/C=C\CCCC(N)=O [1m] reads 60.7%

Kindly note the recorded remaining activity at 10 µM for CCC/C=C\C/C=C\C/C=C\C/C=C\CCCC(=O)C(F)(F)F [1b] , which is 37%

Sample CCCCC/C=C\C/C=C\C/C=C\C/C=C\CCCCC(=O)NCCCCC(=O)O [2g] ; remaining activity at 10 µM observed: 15.5%

According to the records, this compound CCCCC/C=C\C/C=C\C/C=C\C/C=C\CCCC(=O)Nc1ccc(C(=O)O)cc1 [2n] displays remaining activity at 10 µM of 33.3%

Field remaining activity at 10 µM (entry CCCCC/C=C\C/C=C\C/C=C\C/C=C\CCCC(=O)C(F)(F)F [1a, arachidonyl trifluoromethyl ketone, reference compound] ) reads 40%

Notebook: O=C(CCC/C=C\C/C=C\C/C=C\C/C=C\c1ccccc1)C(F)(F)F [1d] , remaining activity at 10 µM read as 31.8%

Measured remaining activity at 10 µM of CCCCC/C=C\C/C=C\C/C=C\C/C=C\CCCCC(=O)Nc1cccc(C(=O)O)c1 [2i] : 11.5%

Documented remaining activity at 10 µM of CCCCC/C=C\C/C=C\C/C=C\C/C=C\CCCC(=O)NCCCCCC(=O)OC [20c] : 84.8%

Documented remaining activity at 10 µM of CCCCC/C=C\C/C=C\C/C=C\C/C=C\CCCC(=O)NCCCC(=O)O [2a] : 39.7%
